# Test system: MOLT-4
# experiment: In vitro antitumor activity against Human T-lymphoblast (Molt/4) cell lines.
# Format: functional, cell-based
propertyMeasured: pIC50
Bear in mind: pIC50 is minus log10 of a mol/L concentration; give just that figure.

Quick check: pIC50 of Cc1n[nH]c2c(O)cc3c(c12)C(CCl)CN3C(=O)OC(C)(C)C (stereo not drawn) ?
5.76

Requested read-out: pIC50. Entry: Cc1n[nH]c2c(O)cc3c(c12)C(CCl)CN3C(=O)c1cc(C(=O)Nc2cc(C(=O)Nc3cc(C(=O)NCCC(=N)N)n(C)c3)n(C)c2)n(C)n1 (stereo not drawn)
7.35

Please look up its pIC50: Cc1n[nH]c2c(O)cc3c(c12)C(CCl)CN3C(=O)c1cc(C(=O)Nc2cc(C(=O)NCCC(=N)N)n(C)c2)n(C)n1 (stereo not drawn)
6.47

Look up pIC50: Cn1cc(NC(=O)c2cc(C(=O)N3CC(CCl)c4c3cc(O)c3c4cnn3Cc3ccccc3)nn2C)cc1C(=O)NCCC(=N)N (stereo not drawn)
6.89

Requested read-out: pIC50. Entry: Cn1cc(NC(=O)c2cc(NC(=O)c3cc(NC(=O)c4cc(C(=O)N5CC(CCl)c6c5cc(O)c5c6cnn5Cc5ccccc5)nn4C)cn3C)cn2C)cc1C(=O)NCCC(=N)N (stereo not drawn)
6.51

Data request, read-out pIC50, for Cn1cc(NC(=O)c2cc(NC(=O)c3cc(C(=O)N4CC(CCl)c5c4cc(O)c4c5cnn4Cc4ccccc4)nn3C)cn2C)cc1C(=O)NCCC(=N)N (stereo not drawn)
6.80

Give the measured pIC50 of Cc1n[nH]c2c(O)cc3c(c12)C(CCl)CN3C(=O)c1cc(C(=O)Nc2cc(C(=O)Nc3cc(C(=O)Nc4cc(C(=O)NCCC(=N)N)n(C)c4)n(C)c3)n(C)c2)n(C)n1.Cl (stereo not drawn) .
7.77

Fill in: pIC50 of CC(C)(C)OC(=O)N1CC(CCl)c2c1cc(O)c1c2cnn1Cc1ccccc1 (stereo not drawn) is ___
5.07
